Test system: MCF7 breast
Assay: NCI-60 one-dose screen, 48 h (100 = growth as untreated, 0 = no growth, -100 = all killed)
Conditions: 10 µM unless noted
Compounds without any hit were thinned out: in the full panel of roughly 83,000, 20% have a hit.
Parameter threshold = 20%. Response is yes when growth meets or exceeds it, else no.

MOLECULE | CLASS_NAME
OC(c1ccccc1)(c1ccccc1)C1CCN(c2ccc3nnc(Cl)n3n2)CC1 | no
CC1=C(C(=O)OCc2ccccc2)C(c2cccc3ccccc23)n2c(nc3ccccc32)N1 (stereo not given) | no
Cc1cnc2ccc(Oc3ccccc3-c3ccccc3)nn12 | yes
CCCCCCCCCc1ccc(C(=O)Nc2cc(C)ccc2C(=O)OC)cc1 | yes
O=C(Nc1ccc(Cl)c(C(F)(F)F)c1)N1CCN(c2cc(-c3cn(-c4ccccc4)nc3-c3cccc(O)c3)ccn2)CC1 | no
O=C1Nc2ccccc2/C1=C\c1ccc(OCC(=O)c2ccc(Br)cc2)cc1 | yes
CCc1ccccc1-c1nc(CN[C@@H]2C[C@@H]3C[C@H]([C@H]2C)C3(C)C)c(C)o1 | no
CN(C)c1nc(NCCNS(=O)(=O)c2ccc(C(=O)/C=C/c3ccc(F)cc3)cc2)nc(N2CCOCC2)n1 | no
COc1ccc2[nH]cc(-c3cc4nc(-c5cn(C)c6ncc(Br)cc56)cc(N)n4n3)c2c1 | no
CCCCCCCCCCCCCCCCCC(=O)Nc1ccc(OC)cc1 | yes
COc1cc(/C=N/NC(=O)c2ccc(OCc3nc4ccc(C)cc4[nH]3)cc2)cc(OC)c1OC | yes
CCOC(=O)/C(F)=C/C1CC1CCc1ccc(OCC)cc1 (stereo not given) | yes
Oc1ccc(F)c(Nc2nc(SCCN3CCOCC3)nc3c2cnn3CC(Cl)c2ccc(Br)cc2)c1 (stereo not given) | no
O=C1CC(c2ccc(I)cc2)OC2C=Cc3ccccc3C12 (stereo not given) | yes
O=C(N/N=C/c1ccoc1)c1[nH]c2ccc(Br)cc2c1-c1ccccc1 | no
COc1cccc(C(N)=Nc2ccc(OCCCCCCCCn3cncn3)cc2)c1 | no
COC(=O)c1cc(C(=O)C(F)(F)F)n2c3ccccc3c3ccccc3c12 | yes
CC(C)(C)c1cc(-c2cc(-c3ccccc3)[nH]c(=O)c2C#N)cc(C(C)(C)C)c1 | yes
Cn1cc(Nc2ncnc(-c3ccc(N4CCCC4)c(C#N)c3)n2)cn1 | yes

----------
Test system: UACC-257 melanoma
Assay: NCI-60 one-dose screen, 48 h (100 = growth as untreated, 0 = no growth, -100 = all killed)
Details: 10 µM unless noted
This is part of a sample that, as a whole, favours compounds with a hit. Of some 83,000 tested, about 20% had one in any assay.
Note: every record was labeled by where its growth sits among low (below 40%), middle (40% to below 90%), high (90% or more)

CHEM_SMILES | CLASS_NAME
O=Cc1cncc(-c2ccc3ncnc(N4CCc5cc(F)c(Cl)cc54)c3c2)c1 | middle
COc1ccc2[nH]c(O)c(N=Nc3nc(-c4ccc(Br)cc4)cs3)c2c1 | low
Cn1cc(Nc2ncnc(-c3ccc(N4CCCC4)c(C#N)c3)n2)cn1 | high
COc1ccc2[nH]cc(-c3cc4nc(-c5cn(C)c6ncc(Br)cc56)cc(N)n4n3)c2c1 | low
COc1ccc(-c2nc3ccccc3n2CC(=O)N=Nc2c(O)[nH]c3ccc(Br)cc23)cc1 | high
Cc1ccc(-c2cc(C(=O)N=Nc3c(O)[nH]c4ccc(F)cc34)c3ccccc3n2)cc1 | middle
COc1ccc(-c2cc(-c3ccccc3)c(C#N)c(=O)[nH]2)cc1S(N)(=O)=O | high
O=C(Cn1c(-c2ccccc2)nc2ccccc21)N=Nc1c(O)[nH]c2ccc(Cl)cc12 | low
COc1ccc(NC(=O)CSc2nnc(-c3ccc(-c4nc5ccccc5[nH]4)cc3)o2)cc1 | low

----------
Tested on: HT29 colon
Experiment: NCI-60 one-dose screen, 48 h (100 = growth as untreated, 0 = no growth, -100 = all killed)
Details: 10 µM unless noted
About 83,000 compounds went through this panel and 20% of them were active in at least one assay; those are over-represented in the sample as a whole.
Quick list: growth per entry.

COMPOUND | UNIT_INFO | growth
CN(C)CCOc1ccc(C(=O)C2[C@H](c3ccc(Cl)cc3)[C@@H](c3ccccc3)NC23C(=O)Nc2ccc(Cl)cc23)cc1 (some centres not stated) | % | -93.7
COc1cccc(/C=C/c2nc3ccccc3c(=O)n2CC(=O)Nc2ccccc2)c1 | % | 58.5
Cc1ccc(S(=O)(=O)N(CCn2ccnc2[N+](=O)[O-])CCn2ccnc2[N+](=O)[O-])cc1 | % | 112
COc1ccc2[nH]cc(-c3cc(N)n4nc(-c5c[nH]c6ccccc56)cc4n3)c2c1 | % | -63.8
Cc1ccc(C(=O)Nc2cc(-n3ccnc3C)cc(C(F)(F)F)c2)cc1C#Cc1cnc2cccnn12 | % | -16.8
CCCSc1nnc(-c2c(C)nc3sccn23)o1 | % | 101
Clc1ccc(-c2nc3ccc(-c4nnc(SCc5ccccc5)o4)cc3[nH]2)cc1 | % | 41.5
COc1cc(CNC(=O)[C@]23CCC(C)(C)CC2C2=CCC4[C@@]5(C)CCC(OC(C)=O)C(C)(C)C5CC[C@@]4(C)[C@]2(C)CC3)ccc1OCc1cn(-c2ccc(Cl)cc2Cl)nn1 (some centres not stated) | % | 98
COc1cc(CNC(=O)C[C@H](C)CCC=C(C)C)ccc1OCc1cn(-c2ccc(Cl)cc2Cl)nn1 | % | 82.3
COc1ccc2nc(NC(=O)c3ccc(N(C)C)cc3)sc2c1 | % | 100
CCC(=O)c1c2c(c3ccc4c5ccccc5ccc4n13)C(=O)c1ccccc1C2=O | % | 94.2
CC1=C(C(=O)OC(C)C)C(c2ccc(O)cc2)NC(=O)N1 (configuration not stated) | % | 107
CC[C@]12C=CCN3CC[C@@]4(c5ccc(OC)cc5N(C)[C@H]4[C@@](O)(C(=O)OC)[C@@H]1OC(=O)CCCC[P+](c1ccc(F)cc1)(c1ccc(F)cc1)c1ccc(F)cc1)[C@@H]32 | % | 15.9
Cc1ccc(Cl)cc1NC(=O)Nc1nc2ccc([N+](=O)[O-])cc2s1 | % | -18.9
O=Cc1cncc(-c2ccc3ncnc(N4CCc5cc(F)c(Cl)cc54)c3c2)c1 | % | 56.6
COc1ccc2[nH]c(O)c(N=Nc3nc(-c4ccc(Br)cc4)cs3)c2c1 | % | 12.8
c1n[nH]cc1-c1nc2ccc3[nH]ncc3c2c2c1CC1(CC2)COC1 | % | 52.1
Cc1ccc(/C=C/C(=O)c2ccc(S(=O)(=O)NCCNc3nc(N(C)C)nc(N4CCOCC4)n3)cc2)cc1 | % | 37.3
O=CNc1ccc(-n2cnc3cc(-c4ccc(O)cc4)ccc32)cc1 | % | 111
O=C1Nc2ccccc2/C1=C\c1ccc(OCC(=O)c2ccc(Br)cc2)cc1 | % | 82.7
Cc1nc2sccn2c1-c1nnc(SCC(C)C)o1 | % | 79.9
COc1ccc(-c2cc(-c3cc(OC)c(OC)c(OC)c3)[nH]c(=O)c2C#N)cc1 | % | 103
COc1ccc(C2=Nc3c(N)nc(N)nc3NC(c3ccc(Oc4nc(Nc5ccc(F)cc5)nc(N(C)C)n4)c(OC)c3)C2)cc1 (configuration not stated) | % | 46.4
Cc1nc2sccn2c1-c1nnc(SCc2ccccc2)o1 | % | 85.6
Cc1ccc(-c2cc(-c3ccccc3)[nH]c(=O)c2C#N)cc1 | % | 114
Nc1nn2c(-c3cc4ccccc4oc3=O)ccnc2c1N=Nc1ccccc1 | % | 124
O=c1[nH]c2ccccc2cc1COc1ccc(Nc2nccc(-c3ccc(Cl)cc3)n2)cc1 | % | 105
C[C@@H](Nc1c(C#N)cnc2ccc(-c3cnc4[nH]ncc4c3)cc12)c1ccccc1 | % | 79.5
COc1cc(C2CC(c3ccc(Cl)cc3)=Nc3c(N)nc(N)nc3N2)ccc1Oc1nc(Nc2ccc(F)cc2)nc(N(C)C)n1 (configuration not stated) | % | 14.3
CC1=C(C(=O)Nc2ccccc2)C(c2ccc3ccccc3c2)n2c(nc3ccccc32)N1 (configuration not stated) | % | 69
CC1CCc2c(sc3nc(SCC(=O)c4cccc(Br)c4)n(-c4ccccc4)c(=O)c23)C1 (configuration not stated) | % | 21.6
O=C(Nc1nc2ccc([N+](=O)[O-])cc2s1)Nc1ccccc1F | % | 5.55
Cc1ccc(C(=O)Nc2cc(-c3ccccc3)cc(C(F)(F)F)c2)cc1C#Cc1cnc2cccnn12 | % | 34.8
Cc1ccc(S(=O)(=O)Nc2ccc(-c3ccc4c(c3)NC(=O)/C4=C\c3ccc[nH]3)cc2)cc1 | % | 78.5
C#CCCCNCCNc1ccnc2cc(Cl)ccc12 | % | 25.7
O=C1CCC(N2C(=O)c3cccc(NCCCCCC(=O)N4CCN(c5ccc6nc7c(nc6c5C(F)(F)F)C(=O)c5ncccc5C7=O)CC4)c3C2=O)C(=O)N1 (configuration not stated) | % | -18.7
S=C(NCCc1ccccc1)Nc1ccc(OCc2nc3ccc(Cl)cc3[nH]2)cc1 | % | 32.2
